Reference for the values: PubChem BioAssay (NCI)

# Tested on: A498 renal
# TEST_PROTOCOL: NCI-60 one-dose screen, 48 h (100 = growth as untreated, 0 = no growth, -100 = all killed)
# MEASUREMENT_CONTEXT: 10 µM unless noted
This is part of a sample that, as a whole, favours compounds with a hit. Of some 83,000 tested, about 20% had one in any assay.
The label is t for growth below 70% and f for growth equal to or exceeding 70%.

growth under 70%? Item: COc1cc(/C=C/C(=O)c2ccc(F)cc2)ccc1OCCCCOc1ccc(/C=C/C(=O)c2c(C)nc3ccccc3c2C)cc1OC
f

* * *

# Test system: SW-620 colon
# TEST_PROTOCOL: NCI-60 one-dose screen, 48 h (100 = growth as untreated, 0 = no growth, -100 = all killed)
# MEASUREMENT_CONTEXT: 10 µM unless noted
The panel holds about 83,000 compounds, 20% with a hit somewhere; the sample as a whole holds those more often.
Cut-off 90% on growth, inclusive. At or above means Yes; below means No.

Take a look at these entries with their results.
[[record]]
compound = "Cc1cc(C)c2c(c1)N(C)c1ncnc(-n3cnc4cc(C)ccc43)c1CC2C (stereo not given)"
category_label = "No"

[[record]]
compound = "O=C(Nc1nc(-c2ccc(Cl)cc2)nc2c1sc(=S)n2-c1ccccc1)C(F)(F)F"
category_label = "No"

[[record]]
compound = "O=C1/C(=C/c2cccc(F)c2)CN(C(=O)C(Cl)Cl)C/C1=C\\c1cccc(F)c1"
category_label = "No"

[[record]]
compound = "CCC1=C[C@@H]2C[C@]3(C(=O)OC)c4[nH]c5ccccc5c4CC[N@+](CC(=O)Nc4cc5c(cc4OC)N(C)[C@H]4[C@@](O)(C(=O)OC)[C@H](OC(C)=O)[C@]6(CC)C=CCN7CC[C@]54[C@@H]76)(C2)[C@H]13"
category_label = "Yes"

[[record]]
compound = "O=C(Nc1ccc(Oc2cccc(Cl)c2)c(Cl)c1)c1cnccn1"
category_label = "No"


Switching to the query record.
Check this compound for growth at or above 90%: Cc1ccc(-c2nc(N3CCCNCC3)c3oc(-c4ccccc4)nc3n2)cc1
No

* * *

# Test system: HCT-116 colon
# TEST_PROTOCOL: NCI-60 one-dose screen, 48 h (100 = growth as untreated, 0 = no growth, -100 = all killed)
# MEASUREMENT_CONTEXT: 10 µM unless noted
About 83,000 compounds went through this panel and 20% of them were active in at least one assay; those are over-represented in the sample as a whole.
Short version: growth at least 50% is Condition met, less is Condition not met.

Known results for compounds:
[[record]]
compound = "COC(=O)[C@]12CCC(C)(C)C[C@H]1[C@H]1/C(=N/OCCc3nn[nH]n3)C[C@@H]3[C@@]4(C)CC[C@H](OC(C)=O)C(C)(C)[C@@H]4CC[C@@]3(C)[C@]1(C)CC2"
category_label = "Condition not met"

[[record]]
compound = "N#Cc1ccc(O)c(C2=NCC(c3cccc(Oc4ccccc4)c3)O2)c1 (stereo not drawn)"
category_label = "Condition not met"

[[record]]
compound = "C=CCn1c(C)nc2ccc(Nc3nc(Nc4ccc5nc(C)n(CC=C)c5c4)c4ccccc4n3)cc21"
category_label = "Condition not met"

[[record]]
compound = "CCC(C)(C)C(=O)O[C@H]1C[C@@H](C)C=C2C=C[C@H](C)[C@H](CC[C@@H]3CC(SCCN)CC(=O)O3)[C@H]21 (stereo partly drawn)"
category_label = "Condition not met"

[[record]]
compound = "CC1=NC2=Nn3c(c4cnn(-c5ccccc5)c4n/c3=N\\N)NN2C(c2ccccc2)=C1"
category_label = "Condition met"


Could you verify whether the entry Cc1c(O)cc(-c2cnc(Nc3ccccc3)s2)c(O)c1C shows growth of no less than 50%?
Condition met

Quick check: does O=C(COc1ccc(-c2nc3cc(Cl)c(Cl)cc3[nH]2)cc1)N=Nc1c(O)[nH]c2ccc(Cl)cc12 have growth greater than or equal to 50%?
Condition met

Determine whether this compound has growth no lower than 50%: Nc1n[nH]c2cccc(C#Cc3cccc(C(=O)Nc4cc(C(F)(F)F)cc(C(F)(F)F)c4)c3)c12
Condition not met
